- Tested on: U2OS
- protocolDetails: Multiplex assay against U2OS
- Format: toxicity, cell-based
- cond: human, 12 h, 1 µM, compound concentration 1 uM, replicate 2
Task for the reader: assign each of the following compounds its reported Population Healthy Nuclei (%).
Number only, in %; omit the unit.

Q: For U2OS, provide Population Healthy Nuclei (%) of Cc1cn(-c2cc(NC(=O)c3ccc(C)c(Nc4nccc(-c5cccnc5)n4)c3)cc(C(F)(F)F)c2)cn1 [NILOTINIB] please.
Ans: 86

Q: Could you do the same for CN1CCC(=C2c3ccccc3CC(=O)c3sccc32)CC1.O=C(O)/C=C/C(=O)O [KETOTIFEN FUMARATE] , please?
Ans: 87

Q: Thanks! And `Cc1ccc2nc(NCCN)c3ncc(C)n3c2c1.O=C(O)C(F)(F)F.O=C(O)C(F)(F)F` ?
Ans: 75
